Values were extracted from PubChem BioAssay AID651640.

protocolDescription: inhibitors of DENV2 cytopathic effect, primary screen, cell-based, plate reader, single concentration (AID 651640);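 note: 0% = median of neutral control wells and 100% = median of positive control wells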
assayContext: DENV2-infected cells, cytopathic effect rescue, at 9.99 µM, hits give high values
Out of some 350,000 compounds screened, about 6,000 (1.7%) were called active. About 5% were inconclusive and are not listed. The sample as a whole holds a higher share of actives than the screen did.
measuredEndpoint: CPE inhibition (%)
Write the number in % without appending the unit.

Solved entries (count: 5):
COc1ccc(NC(=O)Nc2ccc3c(c2)C(=O)N([C@@H](C)CO)C[C@@H](C)[C@@H](CN(C)C(=O)CCCN(C)C)OCCCC[C@@H](C)O3)cc1 | -1
O=C(CN1CCOCC1)N1CCCCN2[C@@H](CO)[C@H](c3ccc(-c4ccccc4)cc3)[C@@H]2C1 | -4.15
CCC(=O)N(C)C[C@@H]1Oc2ncc(-c3ccccc3OC)cc2C(=O)N([C@@H](C)CO)C[C@@H]1C | -0.292
CC=Cc1ccc2n(c1=O)C[C@H]1[C@H](CO)[C@@H](C(=O)N3CCCCC3)N(Cc3ccccn3)[C@@H]21 (mixture of isomers) | 14.3
C/C=C/c1ccccc1[C@H]1[C@@H](C#N)N(c2nc(CC)cs2)[C@@H]1CO | -4.18

Supply CPE inhibition value. Item: C[C@H](CO)N1C[C@H](C)[C@H](CN(C)C(=O)Nc2cccc(Cl)c2Cl)OCc2ccccc2-c2ccccc2C1=O -3.92

Supply CPE inhibition value. Item: C[C@H]1CN([C@@H](C)CO)C(=O)Cc2cc(NC(=O)C3CC3)ccc2O[C@@H]1CN(C)S(=O)(=O)c1cccs1 0.692
